Experiment: Toxicity liver stage against HepG2, at 10uM
Assay type: cell-based
Parameters: test concentration 10 uM, cell line HepG2-A16-CD81EGFP
Settings: human, HepG2-A16-CD81EGFP cells; read-out: INHIBITION
test readout: cytotoxicity at 10 µM (%)
Provide the reading as a plain figure in %.

In the examples that follow, each entry is paired with its recorded cytotoxicity at 10 µM.
Cc1cc(CN(C)C(=O)c2ccc(Cl)c(N3CCCC3=O)c2)no1 | -14.5
CC(C)n1cc(CN2CCCN(C(=O)C(C)n3cncn3)CC2)cn1 (stereo unspecified) | -16.2
CC(NCc1cccc(S(=O)(=O)N(C)C)c1)c1ccccn1 (stereo unspecified) | -10.5
COc1cccc(C=CCCN2CCN(S(C)(=O)=O)CC2)c1 | -1.62
COCCCNC(=O)c1nnsc1-c1ccccc1 | 5.09

Could you share which cytotoxicity at 10 µM value was measured for `CS(=O)(=O)c1ccc(O[C@H]2COCCN(C(=O)c3ccno3)C2)cc1` ?
0.0962

Data provenance is ChEMBL document CHEMBL4513216.
